# assayed-system: wild-type human CFTR (Homo sapiens)
# Construct: expressed in transfected cells
# Sequence (P13569 whole entry): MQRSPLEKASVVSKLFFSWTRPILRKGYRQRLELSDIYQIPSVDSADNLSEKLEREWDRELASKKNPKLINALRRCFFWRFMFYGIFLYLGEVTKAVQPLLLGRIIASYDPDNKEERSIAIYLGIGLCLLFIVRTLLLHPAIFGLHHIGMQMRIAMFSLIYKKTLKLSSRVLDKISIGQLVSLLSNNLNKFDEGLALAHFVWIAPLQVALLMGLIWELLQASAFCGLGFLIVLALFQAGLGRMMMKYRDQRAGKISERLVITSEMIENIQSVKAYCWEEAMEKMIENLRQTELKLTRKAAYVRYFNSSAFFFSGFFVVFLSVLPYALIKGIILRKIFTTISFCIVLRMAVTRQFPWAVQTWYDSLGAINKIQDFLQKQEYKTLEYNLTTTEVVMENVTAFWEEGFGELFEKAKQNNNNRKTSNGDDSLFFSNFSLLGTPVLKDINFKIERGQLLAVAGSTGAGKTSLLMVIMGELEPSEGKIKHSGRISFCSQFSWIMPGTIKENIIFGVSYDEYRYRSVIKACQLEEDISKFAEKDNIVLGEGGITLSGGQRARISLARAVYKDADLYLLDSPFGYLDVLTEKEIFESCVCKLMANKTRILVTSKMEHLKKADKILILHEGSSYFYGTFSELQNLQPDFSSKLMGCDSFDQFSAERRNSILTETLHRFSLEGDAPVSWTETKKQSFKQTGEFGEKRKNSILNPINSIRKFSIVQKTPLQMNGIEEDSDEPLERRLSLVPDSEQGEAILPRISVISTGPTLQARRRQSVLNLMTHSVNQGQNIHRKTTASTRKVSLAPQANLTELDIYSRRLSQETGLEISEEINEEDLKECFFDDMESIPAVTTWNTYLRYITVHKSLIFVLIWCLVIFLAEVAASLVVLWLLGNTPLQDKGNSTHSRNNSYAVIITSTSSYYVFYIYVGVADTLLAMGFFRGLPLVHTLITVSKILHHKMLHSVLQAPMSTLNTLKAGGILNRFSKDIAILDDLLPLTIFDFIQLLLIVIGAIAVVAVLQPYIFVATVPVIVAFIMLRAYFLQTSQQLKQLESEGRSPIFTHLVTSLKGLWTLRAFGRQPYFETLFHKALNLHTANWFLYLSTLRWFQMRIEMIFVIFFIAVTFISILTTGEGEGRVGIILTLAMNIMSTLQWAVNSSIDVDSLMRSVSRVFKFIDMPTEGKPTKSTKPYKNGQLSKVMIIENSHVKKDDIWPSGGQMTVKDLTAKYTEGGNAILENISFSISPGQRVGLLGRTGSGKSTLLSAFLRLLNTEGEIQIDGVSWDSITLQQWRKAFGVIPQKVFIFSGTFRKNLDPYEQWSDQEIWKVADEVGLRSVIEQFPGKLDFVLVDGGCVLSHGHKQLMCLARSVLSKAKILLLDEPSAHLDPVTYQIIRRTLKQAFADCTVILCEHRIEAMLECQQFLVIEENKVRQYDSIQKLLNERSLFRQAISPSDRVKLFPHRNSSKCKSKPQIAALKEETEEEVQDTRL
# test-details: CFTR Cl- currents in excised inside-out membrane patches from C127 cells (time course, I-V studies)
# Type: biochemical
# assay-conditions: -50 mV
observation-type: effect on CFTR Cl- currents (concentration-response, FIG. 3)

{"molecule": "O=C1OC2(c3cc(I)c(O)c(I)c3Oc3c2cc(I)c(O)c3I)c2c(Cl)c(Cl)c(Cl)c(Cl)c21 [bengal rose B]", "val": "stimulated and inhibited"}
{"molecule": "O=C1OC2(c3ccc(O)cc3Oc3cc(O)ccc32)c2ccccc21 [fluorescein]", "val": "only inhibited"}
{"molecule": "O=C1OC2(c3ccc(O)cc3Oc3cc(O)ccc32)c2c(Cl)c(Cl)c(Cl)c(Cl)c21 [tetrachlorofluorescein]", "val": "only inhibited"}
{"molecule": "O=C1OC2(c3ccccc31)c1cc(Br)c(O)c(Br)c1Oc1c2cc(Br)c(O)c1Br [eosin Y]", "val": "stimulated and inhibited"}

Incoming: Would you kindly share the measured effect on CFTR Cl- currents (concentration-response, FIG. 3) for O=C(O)c1c(Cl)c(Cl)c(Cl)c(Cl)c1-c1c2cc(Br)c(=O)c(Br)c-2oc2c(Br)c(O)c(Br)cc12 [phloxine B] ?
Outgoing: stimulated and inhibited

* * *

# assayed-system: UniProtKB P13569
# test-details: CFTR Cl- currents in excised inside-out membrane patches from C127 cells (time course, I-V studies)
# assay-conditions: PKA-phosphorylated channels; read-out: EC50 for activation of CFTR Cl- channels by intracellular ATP
observation-type: EC50
Please don't drop the unit; write it after the number.

Incoming: Would you kindly share the measured EC50 for Nc1ncnc2c1ncn2[C@@H]1O[C@H](COP(=O)(O)OP(=O)(O)OP(=O)(O)O)[C@@H](O)[C@H]1O [ATP, reference compound] ?
Outgoing: 300 µM
